Parameter: IC50. Scope: all listed entries.
Molecular target: GRK2 (Homo sapiens, UniProt P25098)
Construct: purchased SignalChem A14-10G
Sequence (P25098 1-689): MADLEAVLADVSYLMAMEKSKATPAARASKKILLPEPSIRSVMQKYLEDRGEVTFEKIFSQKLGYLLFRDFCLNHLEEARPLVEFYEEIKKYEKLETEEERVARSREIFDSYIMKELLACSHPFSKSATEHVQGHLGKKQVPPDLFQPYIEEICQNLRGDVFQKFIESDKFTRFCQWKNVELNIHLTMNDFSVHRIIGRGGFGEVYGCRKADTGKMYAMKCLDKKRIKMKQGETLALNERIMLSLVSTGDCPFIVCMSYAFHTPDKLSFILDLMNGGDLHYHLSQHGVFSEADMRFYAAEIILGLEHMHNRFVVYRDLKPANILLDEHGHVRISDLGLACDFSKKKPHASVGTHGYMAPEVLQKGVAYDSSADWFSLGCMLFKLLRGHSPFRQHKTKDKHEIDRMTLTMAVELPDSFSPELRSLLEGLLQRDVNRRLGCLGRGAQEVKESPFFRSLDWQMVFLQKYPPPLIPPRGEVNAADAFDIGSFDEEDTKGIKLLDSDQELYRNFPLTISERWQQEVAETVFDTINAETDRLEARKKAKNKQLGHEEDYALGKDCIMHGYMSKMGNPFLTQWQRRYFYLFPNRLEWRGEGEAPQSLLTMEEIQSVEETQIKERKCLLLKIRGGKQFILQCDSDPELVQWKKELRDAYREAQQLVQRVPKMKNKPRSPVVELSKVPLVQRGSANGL
Experiment: GRK2 Inhibition Assay (TR-FRET, Example 7)
Format: biochemical
Conditions: 1 nM GRK2, 7 μM ATP, TR-FRET; read-out: GRK2 IC50 (nM) (Example 7)
Express your answer in nM, writing the number without its unit.

Consider the worked cases shown below.
Noted for COc1ccc(CNC(=O)c2cccc(NCc3nnc(-c4ccncn4)n3C)c2)c(F)c1 : its IC50 reads 5.4

# IC50 of CCOc1ccccc1CNC(=O)c1cccc(NCc2nnc(-c3ccncn3)n2C)c1 = 33

Further cases:
According to the records, this molecule CCCn1c(CNc2cc(C(=O)NCc3ccccc3C(F)(F)F)ccn2)nnc1-c1ccncn1 displays IC50 of 4.5

The reported value for Cn1c(CNc2cccc(C(=O)NCc3cccc4c3OCC4)c2)nnc1-c1ccncn1 in terms of IC50 is 4.7

GET /value?item= Cn1c(CNc2cccc(C(=O)NC3(c4ccccc4)CCOCC3)c2)nnc1-c1ccncn1 &field=IC50 returns 170

For record COc1cccc(OC)c1CNC(=O)c1cccc(NCc2nnc(-c3ccncn3)n2C)c1 the listed IC50 is 19

====

Target: GRK2 (Homo sapiens)
Construct: purchased SignalChem A14-10G
Experiment: ADPGlo GRK2 Inhibition Assay (Example 8)
Type: biochemical
Conditions: ADPGlo GRK2 enzyme assay; read-out: A: Enzymatic GRK2: IC50 (nM) (Example 8)
Quantity Kind: IC50 (nM)
Field format: number, assumed nM, no unit text.

Example results:
The compound Cn1c(CNc2cccc(C(=O)NC3CCCn4nccc43)c2)nnc1-c1ccncn1 (centres unmarked) showed IC50 equal to 171

Data point: Cc1ccc2c(c1)C(NC(=O)c1cccc(NCc3nnc(-c4ccncn4)n3C)c1)CO2 (centres unmarked) ; IC50 = 18.8

Cn1c(CNc2cccc(C(=O)NCc3ccccc3N3CCOCC3)c2)nnc1-c1ccncn1 has a reported IC50 of 50

Note to self: IC50 recorded for Cn1c(CNc2cccc(C(=O)NCc3cccc4c3CCOC4)c2)nnc1-c1ccncn1 was 8.5

Others:
Just so you know, measured IC50 for C[C@H](NC(=O)c1cccc(NCc2nnc(-c3ccncc3)n2C)c1)c1ncccc1Cl came out at 2.97

These data points were gathered from patent US20230009608A1.
